Each recorded value in this set is attributed to patent US20240139326A1.

Measured IC50 of individual entries
biological target: wild-type BTK (Homo sapiens (Human)); assay: In vitro kinase activity assay for BTK (Nanosyn); format: biochemical; conditions: unit μM
Sequence (Q06187 whole entry): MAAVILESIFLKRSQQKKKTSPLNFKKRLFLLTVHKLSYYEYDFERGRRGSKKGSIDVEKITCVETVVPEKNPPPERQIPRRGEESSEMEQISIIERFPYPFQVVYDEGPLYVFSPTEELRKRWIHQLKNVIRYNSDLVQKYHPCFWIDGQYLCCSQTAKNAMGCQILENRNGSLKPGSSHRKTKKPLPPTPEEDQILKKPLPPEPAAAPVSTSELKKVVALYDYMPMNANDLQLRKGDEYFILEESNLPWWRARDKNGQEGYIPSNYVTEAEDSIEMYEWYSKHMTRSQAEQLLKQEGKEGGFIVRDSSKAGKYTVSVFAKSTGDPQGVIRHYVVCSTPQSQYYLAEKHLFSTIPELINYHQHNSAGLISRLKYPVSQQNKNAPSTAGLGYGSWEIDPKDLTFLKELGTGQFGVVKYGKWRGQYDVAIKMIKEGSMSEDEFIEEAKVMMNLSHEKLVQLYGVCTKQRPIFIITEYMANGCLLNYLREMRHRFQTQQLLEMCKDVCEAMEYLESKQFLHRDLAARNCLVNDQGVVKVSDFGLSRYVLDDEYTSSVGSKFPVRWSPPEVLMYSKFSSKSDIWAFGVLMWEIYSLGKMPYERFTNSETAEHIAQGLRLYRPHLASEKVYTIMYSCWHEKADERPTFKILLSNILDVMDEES
Reported Endpoint: IC50

INSERT INTO results (line_notation, target_or_test_system, value_observed) VALUES
  ('C=C(CN1CCCCC1)C(=O)N1CCC[C@@H](n2nc(-c3ccc(Oc4ccccc4)cc3)c3c(N)ncnc32)C1', 'wild-type BTK (Homo sapiens (Human))', '< 100 µM'),
  ('C=C(CNCc1ccccc1)C(=O)N1CCC[C@@H](n2nc(-c3ccc(Oc4ccccc4)cc3)c3c(N)ncnc32)C1', 'wild-type BTK (Homo sapiens (Human))', '< 100 µM'),
  ('C=C(COC(C)=O)C(=O)N1CCC[C@@H](n2nc(-c3ccc(Oc4ccccc4)cc3)c3c(N)ncnc32)C1', 'wild-type BTK (Homo sapiens (Human))', '< 100 µM');
